This collection of values is drawn from patent US20110098217A1.

# target: human glucagon receptor (human, UniProt P47871 26-477)
# Sequence (P47871 26-477): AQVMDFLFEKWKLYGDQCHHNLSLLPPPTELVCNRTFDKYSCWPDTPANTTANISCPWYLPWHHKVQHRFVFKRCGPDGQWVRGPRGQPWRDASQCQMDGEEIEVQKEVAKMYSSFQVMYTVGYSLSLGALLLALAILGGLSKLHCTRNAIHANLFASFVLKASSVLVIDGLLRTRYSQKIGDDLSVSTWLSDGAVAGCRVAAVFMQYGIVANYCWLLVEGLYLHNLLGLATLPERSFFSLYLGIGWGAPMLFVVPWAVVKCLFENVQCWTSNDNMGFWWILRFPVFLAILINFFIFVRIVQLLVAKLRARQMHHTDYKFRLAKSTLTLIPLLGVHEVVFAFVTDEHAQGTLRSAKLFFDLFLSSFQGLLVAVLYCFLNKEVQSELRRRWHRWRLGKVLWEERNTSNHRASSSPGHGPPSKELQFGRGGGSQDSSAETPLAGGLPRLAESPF
# protocol description: cell-based or functional assay
Square brackets hold non-standard residues; d marks the D form. Ends that are not written are not given here. Abu(4-SO3H) = N[C@@H](CCS(=O)(=O)O)C(=O)O
parameter: cAMP IC50 (nM)
Response body: numeric value in nM, unit text excluded.

FTSKYSKYLDSRRAQDFVQWLMNT-NH2 (also called [K^9]Glucagon(aa6-29)-NH2; peptide no; 16) [[Lys^9]Glucagon(aa6-29)-NH2]	398

FTS[Abu(4-SO3H)]YSKYLDSRRAQDFVQWLMNT-NH2 (also called [hCys(SO3)9]Glucagon(aa6-29)-NH2) [[hCys^9(SO3H)]Glucagon(aa6-29)-NH2] has a reported cAMP IC50 of 133

Looking up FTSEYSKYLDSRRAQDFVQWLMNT-NH2 (also called [E^9]Glucagon(aa6-29)-NH2; peptide no; 11) [[Glu^9]Glucagon(aa6-29)-NH2] , I found its cAMP IC50 recorded as 97.2

// field: cAMP IC50; key: FTSDYSKYLDSRRAQDFVQWLMNT-NH2 (also called peptide no; 15) [Glucagon(aa6-29)-NH2] ; value = 346
